B1: glmS ribozyme (parent)
chain: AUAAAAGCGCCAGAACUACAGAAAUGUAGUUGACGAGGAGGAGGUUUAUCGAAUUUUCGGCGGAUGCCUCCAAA

# Variants of: B1
# test_details: self-cleavage kobs at 40 uM GlcN6P; higher = faster cleavage; RNA array
# run_conditions: with glucosamine-6-phosphate
Variants at the floor of the assay were thinned out.
parameter_measured: self-cleavage kobs at 40 uM GlcN6P

Past entries and their recorded results:
{"columns": ["mutation", "self-cleavage kobs at 40 uM GlcN6P"],
 "data": [
  ["U49C A52U", "< 1e-05 s⁻¹"],
  ["G35U A53U C61G C68G", "0.000579 s⁻¹"],
  ["U30G A48C C70G", "< 1e-05 s⁻¹"],
  ["C34G A64U", "< 1e-05 s⁻¹"],
  ["A42U G51A", "< 1e-05 s⁻¹"]
]}

The recorded self-cleavage kobs at 40 uM GlcN6P for C8G G51U A64G is < 1e-05 s⁻¹

The recorded self-cleavage kobs at 40 uM GlcN6P for G32C A39G is < 1e-05 s⁻¹

The recorded self-cleavage kobs at 40 uM GlcN6P for A6U G43U is < 1e-05 s⁻¹

The recorded self-cleavage kobs at 40 uM GlcN6P for G13C G32C U57G C70G is 7.16e-05 s⁻¹

The recorded self-cleavage kobs at 40 uM GlcN6P for A14G A33U G43A is < 1e-05 s⁻¹

The recorded self-cleavage kobs at 40 uM GlcN6P for U31A G51A U56A C58U G63U U65G is < 1e-05 s⁻¹

The recorded self-cleavage kobs at 40 uM GlcN6P for A15G G29U U56G G63A is < 1e-05 s⁻¹
